- Test system: UACC-62
- procedureSummary: NCI tumour cell line growth inhibition, 48 h
The source made the active and inactive calls. Rule as the data show it: active = GI50 up to about 1.1 µM and inactive = higher.
Some compounds, each annotated with its measured GI50.

Sample answers from the record:
O=C1CCCC(=O)N1n1c(Cc2ccccc2)n[nH]c1=O ... > 100 µM (inactive)
CC(=O)c1c(CO[N+](=O)[O-])[n+]([O-])c2ccccc2[n+]1[O-] ... 35.7 µM (inactive)
C=C1CC[C@@H](CCC2CCC3(OC2)O[C@]2(O)CC[C@@]3(C)OC2(C)C)C(C)(C)[C@H]1C/C=C1\CCOC1=O (stereo partly drawn) ... 27 µM (inactive)
O/N=C1\SC(=N\O)/C(=N/O)S\C1=N/O ... 94.8 µM (inactive)
CN(C)C(=O)Oc1c(-c2ccccc2)c(=O)n2c3ccccc3n3c(=O)n(C)c(=O)c1c23 ... > 100 µM (inactive)

Note to self: GI50 recorded for CC1(C)CCCCCCC2CC2CCCCCC(C)(C)C1=O (stereo not drawn) was > 100 µM (inactive)

Note to self: GI50 recorded for COC(=O)c1ccc(Oc2nc3ccccc3nc2-c2cccs2)cc1 was 40.6 µM (inactive)

Note to self: GI50 recorded for O=C1c2c[nH]nc2C(c2ccccc2)N1c1ccccc1 (stereo not drawn) was > 10 µM (inactive)

====

- Tested on: BT-549
- procedureSummary: NCI tumour cell line growth inhibition, 48 h
Active and inactive are the calls of the source. No stated cut-off is given here; in the data, active = GI50 up to about 1.1 µM and inactive = higher.
Some compounds, each annotated with its measured GI50.

GI50 value, target or system BT-549, for CSc1c(C#N)c(O)nc(N)c1C(=O)Nc1ccc(Cl)cc1 : 24.5 µM (inactive)

GI50 value, target or system BT-549, for CCOC(=O)n1[nH]c(=O)n(-c2ccccc2)c1=O : > 100 µM (inactive)

GI50 value, target or system BT-549, for CC1(C)CCCC2CC2CCC(C)(C)C1=O (stereo not given) : > 100 µM (inactive)

GI50 value, target or system BT-549, for NCCN1C(=O)c2ccccc2C1(O)c1ccc(Cl)cc1 (stereo not given) : 42.6 µM (inactive)

GI50 value, target or system BT-549, for Cc1ccc(NC(=O)C(=O)CC(=O)c2sc(Nc3c(C)cccc3C)nc2C)cc1C : > 100 µM (inactive)

GI50 value, target or system BT-549, for CO/N=C1\CC(NC(=O)CNC(=O)OC(C)(C)C)c2ccsc21 (stereo not given) : > 100 µM (inactive)

GI50 value, target or system BT-549, for O=C(CC(=O)c1ccccc1NC1=Cc2ccccc2C(=O)C1=O)C(=O)NC1=C(Cl)C(=O)c2ccccc2C1=O : 3.76 µM (inactive)

GI50 value, target or system BT-549, for Oc1cccc(-c2cc(=S)ss2)c1 : 16.7 µM (inactive)

GI50 value, target or system BT-549, for COC1=C(N2CC2)C(=O)c2nc3n(c2C1=O)CCC3 : 1.15 µM (inactive)

GI50 value, target or system BT-549, for CC(=O)N1N=C(c2c(O)ccc3ccccc23)CC1c1ccc(Cl)cc1 (stereo not given) : 21 µM (inactive)

====

- Test system: OVCAR-8
- procedureSummary: NCI tumour cell line growth inhibition, 48 h
The source made the active and inactive calls. Rule as the data show it: active = GI50 up to about 1.1 µM and inactive = higher.
parameter: GI50

Sample answers from the record:
CC(C)(C)NNC(=O)/C(=C/c1ccc(Oc2ccc(Cl)c(Cl)c2)cc1)NC(=O)c1ccccc1 ... > 100 µM (inactive)
CC1(C)COC(c2cccc(C(=O)c3ccccc3)c2)=N1 ... 48.5 µM (inactive)

Note to self: GI50 recorded for N=C(CC(=O)Nc1ccc(Cl)cc1)Nc1ccccc1 was > 100 µM (inactive)
